experiment-notes: Clearance in ddy mouse at 1 mg/kg, iv by LC-MS/MS analysis
Type: ADME, organism-based
test-context: in vivo
quantity-kind: clearance
Please don't drop the unit; write it after the number.

(Q) Recorded clearance of Cn1nccc1[C@H]1CCCC[C@@H]1Oc1cc(F)c(S(=O)(=O)Nc2ccncn2)cc1Cl , please.
(A) 78.7 mL/min/kg

----------
experiment-notes: Tmax in cynomolgus monkey at 1 mg/kg, iv or po by LC-MS/MS analysis
Assay type: ADME, organism-based, Macaca fascicularis
test-context: in vivo
quantity-kind: Tmax
Answer format reminder: number followed by unit.

(Q) I am curious: what Tmax value has been reported for Cn1nccc1[C@H]1CCCC[C@@H]1Oc1cc(F)c(S(=O)(=O)Nc2ccncn2)cc1Cl ?
(A) 49.8 min

----------
experiment-notes: Aqueous thermodynamic solubility of the compound at pH 6.8 measured after 4 hrs by UV-HPLC analysis
Type: physicochemical
test-context: buffer, pH 6.8; read-out: Therm_solubility
Use 1000 µM as the dividing line for solubility thermodynamic at 4 h, with the line itself on the T side and lower values as F.

Worked examples, 3 molecules total:
{"columns": ["molecule", "group"],
 "data": [
  ["Cn1nccc1[C@H]1CCCC[C@@H]1Oc1cc(F)c(S(=O)(=O)Nc2ncns2)cc1F (racemic)", "T"],
  ["Cn1nccc1[C@H]1CCC[C@@H]1Oc1cc(F)c(S(=O)(=O)Nc2nccs2)cc1F (racemic)", "F"],
  ["Cn1nccc1[C@H]1CCCCC[C@@H]1Oc1cc(F)c(S(=O)(=O)Nc2ccncn2)c(F)c1 (racemic)", "T"]
]}

(Q) Is reported solubility thermodynamic at 4 h greater than or equal to 1000 µM here: Cc1cc(S(=O)(=O)Nc2ccncn2)c(F)cc1O[C@H]1CCCC[C@@H]1c1ccnn1C (racemic)
(A) T

(Q) Can Cn1nccc1[C@H]1CCCC[C@@H]1Oc1cc(F)c(S(=O)(=O)Nc2cscn2)cc1F (racemic) be said to have solubility thermodynamic at 4 h at or above 1000 µM?
(A) F

----------
experiment-notes: Volume of distribution at steady state in Beagle dog at 1 mg/kg, iv by LC-MS/MS analysis
Type: ADME, organism-based, Canis lupus familiaris
test-context: in vivo, read-out: Vdss
quantity-kind: Vd (L/kg)
Provide the reading as a plain figure in L/kg.

(Q) Quick check: Vd of Cn1nccc1[C@H]1CCCC[C@@H]1Oc1cc(F)c(S(=O)(=O)Nc2ccncn2)cc1Cl [DS-1971] ?
(A) 0.57

----------
experiment-notes: Half life in ddy mouse at 1 mg/kg, iv or po by LC-MS/MS analysis
Format: ADME, organism-based
test-context: in vivo
quantity-kind: half-life (h)
Write down the numeric answer in h and omit the unit.

(Q) Entry Cn1nccc1[C@H]1CCCC[C@@H]1Oc1cc(F)c(S(=O)(=O)Nc2ccncn2)cc1Cl [DS-1971] : reported half-life = ?
(A) 2.02

----------
experiment-notes: Distribution coefficient, log D of the compound in 1-octanol and PBS buffer at pH 7.4 measured after 30 mins by LC-MS analysis
Format: physicochemical
test-context: 1-octanol/PBS buffer
quantity-kind: logD at 0.5 h

{"columns": ["compound", "logD at 0.5 h"],
 "data": [
  ["Cn1nccc1[C@H]1CCC[C@@H]1Oc1cc(F)c(S(=O)(=O)Nc2ccncn2)cc1F (racemic)", 0.3]
]}

(Q) Fill blank: measured logD at 0.5 h of the compound Cn1nccc1[C@H]1CCC[C@@H]1Oc1cc(F)c(S(=O)(=O)Nc2ncns2)cc1F (racemic) is ____.
(A) 0.6

(Q) Endpoint output: logD at 0.5 h of Cn1nccc1[C@H]1CCC[C@@H]1Oc1cc(F)c(S(=O)(=O)Nc2ccncn2)c(F)c1 (racemic) . Value?
(A) 0.1

(Q) Looking for the measured logD at 0.5 h of Cn1nccc1[C@H]1CCCC[C@@H]1Oc1cc(F)c(S(=O)(=O)Nc2ccncn2)c(F)c1 (racemic) , can you help?
(A) 0.1

(Q) So what's the measured logD at 0.5 h for this one? Cn1nccc1[C@H]1CCCC[C@@H]1Oc1cc(F)c(S(=O)(=O)Nc2ccncn2)cc1Cl (racemic) [DS-1971]
(A) 0.8

(Q) Which logD at 0.5 h value belongs to Cn1nccc1[C@H]1CCC[C@@H]1Oc1cc(F)c(S(=O)(=O)Nc2nccs2)cc1F (racemic) ?
(A) 2.1

(Q) What value of logD at 0.5 h has been recorded for this entry: Cn1nccc1[C@H]1CCCCC[C@@H]1Oc1cc(F)c(S(=O)(=O)Nc2ccncn2)c(F)c1 (racemic)
(A) 0.6

----------
This section presents compounds with their documented solubility thermodynamic at 4 h values.
experiment-notes: Aqueous thermodynamic solubility of the compound at pH 6.8 measured after 4 hrs by UV-HPLC analysis
Assay type: physicochemical
test-context: buffer, pH 6.8; read-out: Therm_solubility
Response body: numeric value in µM, unit text excluded.

Example compounds with recorded solubility thermodynamic at 4 h:
{"columns": ["compound", "solubility thermodynamic at 4 h / µM"],
 "data": [
  ["Cc1nsc(NS(=O)(=O)c2cc(F)c(O[C@H]3CCC[C@@H]3c3ccnn3C)cc2F)n1 (racemic)", 1800],
  ["Cc1cc(S(=O)(=O)Nc2ccncn2)c(F)cc1O[C@H]1CCC[C@@H]1c1ccnn1C (racemic)", 1200],
  ["Cn1nccc1[C@H]1CCCC[C@@H]1Oc1cc(F)c(S(=O)(=O)Nc2ccncn2)cc1F (racemic)", 1900]
]}

(Q) Request the reported solubility thermodynamic at 4 h associated with Cn1nccc1[C@H]1CCC[C@@H]1Oc1ccc(S(=O)(=O)Nc2ccncn2)c(F)c1F (racemic)
(A) 550

(Q) Consider the compound Cn1nccc1[C@H]1CCC[C@@H]1Oc1cc(F)c(S(=O)(=O)Nc2ccncn2)cc1Cl (racemic) and give its measured solubility thermodynamic at 4 h.
(A) 240

(Q) Given the entry Cn1nccc1[C@H]1CCCC[C@@H]1Oc1cc(F)c(S(=O)(=O)Nc2ccncn2)c(F)c1 (racemic) , report its measured solubility thermodynamic at 4 h.
(A) 1800

----------
experiment-notes: Toxicity in Crl:CD1(ICR) mouse assessed as effect on spontaneous locomotor activity by measuring NOEL administered as single dose measured at 10 mins interval starting from 2 to 3 hrs
test-context: in vivo
quantity-kind: NOAEL (mg/kg)
The answer is to be given in mg/kg; state only the numeric part.

(Q) Query: NOAEL; subject: Cn1nccc1[C@H]1CCCC[C@@H]1Oc1cc(F)c(S(=O)(=O)Nc2ccncn2)cc1Cl
(A) 1000

----------
experiment-notes: Toxicity in Crl:CD1(ICR) mouse assessed as effect on central nervous system by measuring NOEL administered as single dose measured up to 24 hrs by Irwin's test
test-context: in vivo
quantity-kind: NOAEL at 24 h (mg/kg)
State just the number; it will be interpreted in mg/kg.

(Q) Entry Cn1nccc1[C@H]1CCCC[C@@H]1Oc1cc(F)c(S(=O)(=O)Nc2ccncn2)cc1Cl : reported NOAEL at 24 h = ?
(A) 1000

----------
experiment-notes: Cmax in Beagle dog at 1 mg/kg, iv or po by LC-MS/MS analysis
Assay type: ADME, organism-based, Canis lupus familiaris
test-context: in vivo
quantity-kind: Cmax (nM)
// return numeric value only (unit: nM, not printed)

(Q) // returns reported Cmax for input Cn1nccc1[C@H]1CCCC[C@@H]1Oc1cc(F)c(S(=O)(=O)Nc2ccncn2)cc1Cl
(A) 1710

----------
experiment-notes: Cmax in male Crl:CD1(ICR) mouse at 1000 mg/kg administered for 6 months measured 24 hrs post last dose
Format: ADME, organism-based
Design: dose 1000 mg/kg
test-context: in vivo
quantity-kind: Cmax (µM)
Report only the number, with the unit µM understood.

(Q) Reported Cmax, molecule Cn1nccc1[C@H]1CCCC[C@@H]1Oc1cc(F)c(S(=O)(=O)Nc2ccncn2)cc1Cl : ____
(A) 9.44

----------
experiment-notes: Half life in Sprague-Dawley rat at 1 mg/kg, iv or po by LC-MS/MS analysis
Assay type: ADME, organism-based
test-context: in vivo
quantity-kind: half-life (min)
Please give a number only; it is taken to be in min.

(Q) Would you mind telling me what half-life value was observed for Cn1nccc1[C@H]1CCCC[C@@H]1Oc1cc(F)c(S(=O)(=O)Nc2ccncn2)cc1Cl ?
(A) 46.2

----------
This section presents compounds with their documented remaining at 0.5 h values.
experiment-notes: Stability of the compound in mouse liver microsomes assessed as parent compound remaining measured after 0.5 hrs
Assay type: ADME, Microsome
test-context: mouse liver microsomes, read-out: Stability
Reply with a number, then the unit it belongs to.

# count of solved cases: 6
{"columns": ["compound", "quantity-kind", "reported"],
 "data": [
  ["Cn1nccc1[C@H]1CCC[C@@H]1Oc1cc(F)c(S(=O)(=O)Nc2nccs2)cc1F (racemic)", "remaining at 0.5 h", "54%"],
  ["Cn1nccc1[C@H]1CCC[C@@H]1Oc1cc(F)c(S(=O)(=O)Nc2ccncn2)cc1Cl (racemic)", "remaining at 0.5 h", "88%"],
  ["Cn1nccc1[C@H]1CCCC[C@@H]1Oc1cc(F)c(S(=O)(=O)Nc2ccncn2)cc1F (racemic)", "remaining at 0.5 h", "80%"],
  ["Cn1nccc1[C@H]1CCC[C@@H]1Oc1cc(F)c(S(=O)(=O)Nc2ncns2)cc1F (racemic)", "remaining at 0.5 h", "91%"],
  ["Cn1nccc1[C@H]1CCC[C@@H]1Oc1ccc(S(=O)(=O)Nc2ccncn2)c(F)c1F (racemic)", "remaining at 0.5 h", "82%"],
  ["Cn1nccc1[C@H]1CCCC[C@@H]1Oc1cc(F)c(S(=O)(=O)Nc2ccncn2)c(F)c1 (racemic)", "remaining at 0.5 h", "77%"]
]}

(Q) remaining at 0.5 h lookup needed for Cn1nccc1[C@H]1CCCC[C@@H]1Oc1cc(F)c(S(=O)(=O)Nc2ncns2)cc1F (racemic) , thanks.
(A) 75%

(Q) # get_value(readout='remaining at 0.5 h', item= Cc1cc(S(=O)(=O)Nc2ccncn2)c(F)cc1O[C@H]1CCCC[C@@H]1c1ccnn1C (racemic) )
(A) 75%
